- Tested on: Zymoseptoria tritici (SEPTTR-184)
- PROTOCOL_NOTES: Efficacy of target gene fragments (MgCytB dsRNA tiles) on wheat plants, SEPTTR-184
- Format: in vivo
- SETTINGS: 3DC (curative)
- Description: The 200 ppm rate for each treatment was prepared by adding the calculated volume of the corresponding dsRNA solution in TE buffer. Lower rates were prepared as 4-fold dilutions (50 ppm, 12.5 ppm, and 3.12 ppm). A non-target dsRNA control (YFP), a TE/phosphate buffer control, disease pressure control, and clean plant control were included. These plants were inoculated with an aqueous spore suspension of Zymoseptoria tritici either prior to or after fungicidal treatments. […]
PROPERTY_NAME: ED80 SEPTTR-184 3DC (ppm)
Write the answer as a number in ppm, unit excluded.

Exercise: Need ED80 SEPTTR-184 3DC, item MgCytB-T1: 267 bp dsRNA of Zymoseptoria CytB region 1, location 364-630 (SEQ ID NO:4) (nucleic acid, listed as Zymoseptoria tritici, complementary strand of dsRNA) GTTCTGATGATGGCAACCGCATTCTTAGGGTATGTATTACCTTATGGTCAAATGTCTTTATGAGGAGCAACAGTTATAACTAACTTATTGAGTGCAATACCTTGAGTTGGACAAGACATAGTTGAATTCGTATGAGGTGGATTTTCTGTTAACAATGCAACATTGAACAGATTCTTTGCTCTACATTTCGTTTTACCGTTTGTGTTAGCTGCATTAGTTTTAATGCATCTAATAGCTTTACACGATACAGCGGGTTCAGGAAATCCT
Solution: 159

Exercise: Need ED80 SEPTTR-184 3DC, item MgCytB-T2: 203 bp dsRNA of Zymoseptoria CytB region 2, location 603-805 (SEQ ID NO:5) (nucleic acid, listed as Zymoseptoria tritici, complementary strand of dsRNA) ACACGATACAGCGGGTTCAGGAAATCCTTTAGGTGTATCAGGTAACTACGATAGATTACCATTCGCCCCTTACTTTATATTCAAAGATTTAATAACAATATTTTTATTCATTATAGTGTTATCAATATTTATTTTCTTTATGCCTAACGTTTTAGGTGACAGCGAGAATTATGTTATGGCTAACCCTATGCAAACTCCACCTG
Solution: 27
